Reference source: patent US20160017037A1

tgt: T1, Fc-tagged recombinant soluble LAG-3 (IMP321) (human, UniProt P18627 23-434)
T1 construct: also called LAG3-Ig molecule IMP321; recombinant sLAG-3; not shown: Fc / Ig part
T1 sequence (looked up): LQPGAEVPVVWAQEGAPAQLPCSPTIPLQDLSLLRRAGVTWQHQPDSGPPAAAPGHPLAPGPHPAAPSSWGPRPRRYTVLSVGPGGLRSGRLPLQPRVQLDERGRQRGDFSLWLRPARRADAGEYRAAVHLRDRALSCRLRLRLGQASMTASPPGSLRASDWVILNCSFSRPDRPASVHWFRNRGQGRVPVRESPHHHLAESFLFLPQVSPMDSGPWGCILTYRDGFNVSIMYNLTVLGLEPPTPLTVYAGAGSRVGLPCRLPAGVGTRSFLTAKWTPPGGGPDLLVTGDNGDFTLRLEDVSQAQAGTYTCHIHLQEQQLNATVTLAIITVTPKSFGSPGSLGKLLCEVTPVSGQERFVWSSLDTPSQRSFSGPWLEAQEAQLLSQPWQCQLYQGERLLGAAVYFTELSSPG
methodDescription: SPR Biacore 3000, off-rate comparison with IMP731, IMP321 analyte at 64 nM
Rank order of off-rates values, listed per item
Write the number on its own, no unit after it.

Use these answered entries as a reference point.
- binder: "J13L7 (antibody, human IgG1, kappa, V domains shown, Humanised anti-LAG-3 variant, HEK 293 6E expressed) VH: QVQLVQSGAEVKKPGSSVKVSCKASGGTFSAYGVNWVRQAPGQGLEWMGMIWDDGSTDYDSALKSRVTITADKSTSTAYMELSSLRSEDTAVYYCAREGDVAFDYWGQGTLVTVSS VL: DIQMTQSPSSLSASVGDRVTITCKSSQSLLNPSNQKNYLAWYQQKPGKAPKLLVYFASTRDSGVPSRFSGSGSGTDFTLTISSLQPEDFATYYCLQHFGTPPTFGQGTKLEIKR"
  Rank order of off-rates: 7
- binder: "H0L7 (antibody, human IgG1, kappa, V domains shown, Humanised anti-LAG-3 variant, HEK 293 6E expressed) VH: QVQLQESGPGLVKPSETLSLTCTVSGGSISAYGVNWIRQPPGKGLEWIGMIWDDGSTDYNSALKSRVTISVDTSKNQFSLKLSSVTAADTAVYYCAREGDVAFDYWGQGTLVTVSS VL: DIQMTQSPSSLSASVGDRVTITCKSSQSLLNPSNQKNYLAWYQQKPGKAPKLLVYFASTRDSGVPSRFSGSGSGTDFTLTISSLQPEDFATYYCLQHFGTPPTFGQGTKLEIKR"
  Rank order of off-rates: 10

Qu. Which Rank order of off-rates is reported for this binder? H2L7 (antibody, human IgG1, kappa, V domains shown, Humanised anti-LAG-3 variant, HEK 293 6E expressed) VH: QVQLQESGPGLVKPSETLSLTCTVSGFSLTAYGVNWIRQPPGKGLEWIGMIWDDGSTDYNSALKSRVTISKDNSKNQVSLKLSSVTAADTAVYYCAREGDVAFDYWGQGTLVTVSS VL: DIQMTQSPSSLSASVGDRVTITCKSSQSLLNPSNQKNYLAWYQQKPGKAPKLLVYFASTRDSGVPSRFSGSGSGTDFTLTISSLQPEDFATYYCLQHFGTPPTFGQGTKLEIKR
Ans. 6

Qu. Any idea what its Rank order of off-rates is? The binder is J11L7 (antibody, human IgG1, kappa, V domains shown, Humanised anti-LAG-3 variant, HEK 293 6E expressed) VH: QVQLVQSGAEVKKPGSSVKVSCKASGFSLTAYGVNWVRQAPGQGLEWMGMIWDDGSTDYDSALKSRVTITADKSTSTAYMELSSLRSEDTAVYYCAREGDVAFDYWGQGTLVTVSS VL: DIQMTQSPSSLSASVGDRVTITCKSSQSLLNPSNQKNYLAWYQQKPGKAPKLLVYFASTRDSGVPSRFSGSGSGTDFTLTISSLQPEDFATYYCLQHFGTPPTFGQGTKLEIKR
Ans. 5
